Source: patent US6696480B2

test system: human endothelial cells
Quantity name: concentrations that produce cytotoxicity

Look up and report measured concentrations that produce cytotoxicity for this entry: CC[C@H](C)C(=O)O[C@H]1CCC=C2C=C[C@H](C)[C@H](CC[C@@H]3C[C@@H](O)CC(=O)O3)[C@H]21 [mevastatin, Mevastatin] > 50 µM
